For each of the compounds below, state its solubility kinetic.
assay: Solubility of the compound in phosphate buffer at pH 7.4 at 25 degC by turbimetric method; assay type: physicochemical
Give bare numbers, in µM.

Solved entries:
[
  {
    "STRUCTURE SMILES STRING": "CCCCCCCCn1c2c(c3cc(-c4ccc(S(C)(=O)=O)cc4)ccc31)CN(C)CC2",
    "solubility kinetic / µM": 3.1
  },
  {
    "STRUCTURE SMILES STRING": "CCCCCCCCn1c2c(c3cc(-c4cccc(C)c4)ccc31)CN(C(C)C)CC2",
    "solubility kinetic / µM": 1.6
  },
  {
    "STRUCTURE SMILES STRING": "CCCCCCCCn1c2c(c3cc(-c4cccc(C)c4)ccc31)CN(C)CC2",
    "solubility kinetic / µM": 3.1
  },
  {
    "STRUCTURE SMILES STRING": "CCCCCCCCn1c2c(c3cc(-c4cnc(N)nc4)ccc31)CNCC2",
    "solubility kinetic / µM": 6.3
  },
  {
    "STRUCTURE SMILES STRING": "CCCCCCCCn1c2c(c3cc(-c4ccc(S(C)(=O)=O)cc4)ccc31)CNCC2",
    "solubility kinetic / µM": 3.1
  }
]

Next, consider the following compound.
[in] Provide measured solubility kinetic value, entry: `CCCCCCCCn1c2c(c3cc(-c4ccc(S(C)(=O)=O)cc4)ccc31)CN(C(N)=O)CC2`
[out] 1.6

----------
biological target: NAD-dependent protein deacetylase sirtuin-2 (Homo sapiens); experiment: Non-competitive inhibition of human recombinant SIRT2 using Z-QPK(Me)2K(Ac) as substrate assessed as decrease in maximal enzyme activity preincubated for 60 mins followed by substrate addition measured after 30 mins by double-reciprocal plot analysis in presence of 185 to 5000 uM NAD+; conditions: read-out: Ki(app)
ASSAY ENDPOINT: Ki
Reply with the number and its unit after it.

[in] Provide measured Ki value, entry: `CCCCCCCCn1c2c(c3cc(-c4ccc(S(C)(=O)=O)cc4)ccc31)CNCC2`
[out] 3.7 µM

----------
target: NAD-dependent protein deacetylase sirtuin-1 (Homo sapiens); test: Inhibition of human recombinant SIRT1 assessed as deacetylation of N-acetyl lysine residue in p53 (317 to 320) at 10 uM after 30 mins by luciferase-mediated luminescence assay relative to control
Activity calls are given as the source filed them. No cut-off for these calls is given here.

[
  {
    "STRUCTURE SMILES STRING": "CCCCCCCCn1c2c(c3cc(-c4cnc(N)nc4)ccc31)CN(S(C)(=O)=O)CC2",
    "inhibition": "inactive"
  },
  {
    "STRUCTURE SMILES STRING": "CCCCCCCCn1c2c(c3cc(-c4cccc(C)c4)ccc31)CN(C(N)=O)CC2",
    "inhibition": "inactive"
  },
  {
    "STRUCTURE SMILES STRING": "CCCCn1c2c(c3cc(-c4cnc(N)nc4)ccc31)CNCC2",
    "inhibition": "inactive"
  }
]

----------
molecular target: NAD-dependent protein deacetylase sirtuin-2 (Homo sapiens, UniProt Q8IXJ6); test: Inhibition of human recombinant SIRT2 assessed as deacetylation of N-acetyl lysine residue in p53 (317 to 320) after 30 mins by luciferase-mediated luminescence assay
Sequence (Q8IXJ6 whole entry): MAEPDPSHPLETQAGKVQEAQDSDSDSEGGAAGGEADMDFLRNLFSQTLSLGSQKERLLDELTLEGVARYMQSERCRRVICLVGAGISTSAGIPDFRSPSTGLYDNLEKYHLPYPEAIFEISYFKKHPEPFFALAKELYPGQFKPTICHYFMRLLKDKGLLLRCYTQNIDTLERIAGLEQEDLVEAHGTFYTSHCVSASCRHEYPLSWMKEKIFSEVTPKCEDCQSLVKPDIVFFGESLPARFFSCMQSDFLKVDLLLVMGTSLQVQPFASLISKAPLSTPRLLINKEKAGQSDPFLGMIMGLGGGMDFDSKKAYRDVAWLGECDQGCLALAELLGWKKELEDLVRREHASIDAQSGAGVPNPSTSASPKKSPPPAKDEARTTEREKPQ
ASSAY ENDPOINT: IC50 (µM)
Give bare numbers, in µM.

[
  {
    "STRUCTURE SMILES STRING": "CCCCCCCCn1c2c(c3cc(-c4cccc(C)c4)ccc31)CN(C(N)=O)CC2",
    "ASSAY SYSTEM": "NAD-dependent protein deacetylase sirtuin-2 (Homo sapiens, UniProt Q8IXJ6)",
    "ASSAY ENDPOINT": "IC50",
    "RECORDED MEASUREMENT": 7.8
  },
  {
    "STRUCTURE SMILES STRING": "CCCCCCCCn1c2c(c3cc(-c4cccc(C)c4)ccc31)CN(Cc1ccccc1)CC2",
    "ASSAY SYSTEM": "NAD-dependent protein deacetylase sirtuin-2 (Homo sapiens, UniProt Q8IXJ6)",
    "ASSAY ENDPOINT": "IC50",
    "RECORDED MEASUREMENT": 8.2
  },
  {
    "STRUCTURE SMILES STRING": "CCCCCCCCn1c2c(c3cc(-c4cccc(C)c4)ccc31)CNCC2",
    "ASSAY SYSTEM": "NAD-dependent protein deacetylase sirtuin-2 (Homo sapiens, UniProt Q8IXJ6)",
    "ASSAY ENDPOINT": "IC50",
    "RECORDED MEASUREMENT": 10.1
  }
]

Hey, can you go through the list below and give me IC50 for every item?
1. Cc1cccc(-c2ccc3[nH]c4c(c3c2)CN(C)CC4)c1
2. CCCCCCCCn1c2c(c3cc(-c4cnc(N)nc4)ccc31)CN(C(C)C)CC2

[out]
1. 83
2. 20

[in] Give IC50 for `CCCCCCCCn1c2c(c3cc(-c4cnc(N)nc4)ccc31)CNCC2` tested on NAD-dependent protein deacetylase sirtuin-2 (Homo sapiens, UniProt Q8IXJ6).
[out] 11.8
